- MEASUREMENT_TARGET: T1, human CD73 on cells (Calu6, NCI-H292, SK-MEL-24, human tumor cell lines, human B and T cells) (human, UniProt P21589 27-549)
- T1 sequence: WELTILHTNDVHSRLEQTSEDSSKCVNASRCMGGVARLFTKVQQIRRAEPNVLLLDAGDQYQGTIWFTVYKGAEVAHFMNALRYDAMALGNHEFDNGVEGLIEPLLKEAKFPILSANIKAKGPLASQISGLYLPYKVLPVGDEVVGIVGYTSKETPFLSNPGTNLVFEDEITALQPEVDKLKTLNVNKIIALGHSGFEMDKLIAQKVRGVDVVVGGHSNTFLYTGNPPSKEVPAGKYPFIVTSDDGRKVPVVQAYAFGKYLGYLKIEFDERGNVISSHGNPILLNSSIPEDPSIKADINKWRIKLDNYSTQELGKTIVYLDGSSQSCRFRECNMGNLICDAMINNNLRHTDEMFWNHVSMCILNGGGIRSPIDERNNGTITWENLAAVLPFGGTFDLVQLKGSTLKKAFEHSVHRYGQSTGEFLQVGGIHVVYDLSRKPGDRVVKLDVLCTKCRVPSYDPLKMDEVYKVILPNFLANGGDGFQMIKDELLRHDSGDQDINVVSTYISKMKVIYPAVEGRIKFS
- EXPERIMENT_DESCRIPTION: cell-based or functional assay
OBSERVABLE: Ymax, cAMP HTRF assay

Please review the following examples before continuing.
What does the data say about its Ymax, cAMP HTRF assay? Entry: 11F11 (antibody, human IgG2, kappa, V domains shown, Human IgG2 from hybridoma) VH: QVQLVESGGGVVQPGRSLRLSCATSGFTFSNYGMHWVRQAPGKGLEWVAVILYDGSNKYYPDSVKGRFTISRDNSKNTLYLQMNSLRAEDTAVYYCARGGSSWYPDSFDIWGQGTMVTVSS VL: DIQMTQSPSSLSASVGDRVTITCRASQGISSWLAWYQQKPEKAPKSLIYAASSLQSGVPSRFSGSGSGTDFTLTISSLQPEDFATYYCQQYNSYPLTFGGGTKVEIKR
76 % of 100 nM 11F11

What do we get for 11A6 (antibody, human IgG1, kappa, V domains shown, IgG1za from hybridoma; also called 11A6-1) VH: EVQLVESGGNLVQPGRSLRLSCAASGFTFDDYAMHWVRQAPGKGLEWVSGISWNNNDIGYADSVKGRFIISRDNAKNSLYLQMNSLRPEDTALYYCVKGYYVILTGLDYWGQGTPVTVSS VL: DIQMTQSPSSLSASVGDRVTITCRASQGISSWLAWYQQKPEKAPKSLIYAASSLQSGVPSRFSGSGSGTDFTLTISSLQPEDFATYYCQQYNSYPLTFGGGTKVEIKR ?
84 % of 100 nM 11F11

What do we get for 5F8 (antibody, human IgG1, kappa, V domains shown, IgG1za from hybridoma; predominant light chain VK1, VK2 also expressed; also called 5F8-1) VH: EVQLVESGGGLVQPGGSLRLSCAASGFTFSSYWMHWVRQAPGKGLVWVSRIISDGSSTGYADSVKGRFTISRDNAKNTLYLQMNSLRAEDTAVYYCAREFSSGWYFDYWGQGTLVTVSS VL: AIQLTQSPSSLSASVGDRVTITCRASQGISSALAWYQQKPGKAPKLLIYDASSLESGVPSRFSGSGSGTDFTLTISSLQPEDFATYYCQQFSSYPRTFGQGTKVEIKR ?
80 % of 100 nM 11F11

API: the following record is the query input.
What does the data say about its Ymax, cAMP HTRF assay? Entry: 7A11 (antibody, human IgG1, kappa, V domains shown, IgG1za from hybridoma; also called 7A11-1) VH: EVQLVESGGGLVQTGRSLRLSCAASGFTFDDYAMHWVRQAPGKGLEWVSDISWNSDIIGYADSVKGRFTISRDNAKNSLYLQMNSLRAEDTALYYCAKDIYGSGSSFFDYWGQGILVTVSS VL: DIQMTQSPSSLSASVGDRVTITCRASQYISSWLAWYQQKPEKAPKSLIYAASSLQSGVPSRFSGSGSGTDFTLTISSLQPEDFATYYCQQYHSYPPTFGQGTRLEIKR
45 % of 100 nM 11F11
